- Tested on: Staphylococcus aureus
- TEST_SUMMARY: Antibacterial activity against methicillin-resistant Staphylococcus aureus CCARM 3167 after 20 hrs by two fold serial dilution assay
- Assay type: functional
- CONDITIONS: CCARM 3167, 20 h
ATTRIBUTE_MEASURED: MIC (µg/mL)
Answers are plain numbers, in µg/mL.

1. O=C(O)[C@@H](Cc1ccccc1)N1C(=O)/C(=C/c2cn(-c3ccccc3)nc2-c2ccc(Cl)cc2)SC1=S	2
2. COc1cccc(-c2nn(-c3ccccc3)cc2/C=C2\SC(=S)N([C@H](Cc3ccccc3)C(=O)O)C2=O)c1	16
3. O=C(O)[C@@H](Cc1ccccc1)N1C(=O)/C(=C/c2cn(-c3ccccc3)nc2-c2ccccc2F)SC1=S	4
4. COc1ccccc1-c1nn(-c2ccccc2)cc1/C=C1\SC(=S)N([C@H](Cc2ccccc2)C(=O)O)C1=O	16
5. O=C(O)[C@@H](Cc1ccccc1)N1C(=O)/C(=C/c2cn(-c3ccccc3)nc2-c2ccc3ccccc3c2)SC1=S	16

Below are some compounds; for each one, tell me its MIC.
1. Cc1ccc(-c2nn(-c3ccccc3)cc2/C=C2\SC(=S)N([C@H](Cc3ccccc3)C(=O)O)C2=O)c(C)c1
2. O=C(O)[C@@H](Cc1ccccc1)N1C(=O)/C(=C/c2cn(-c3ccccc3)nc2-c2ccccc2Cl)SC1=S
3. O=C(O)[C@@H](Cc1ccccc1)N1C(=O)/C(=C/c2cn(-c3ccccc3)nc2-c2ccc(F)cc2)SC1=S

[2, 1, 1]
